Entry source: ChEMBL document CHEMBL4811273

Please go through the items and note down their logD.
Assay: Partition coefficient, logD between 1-octanol and pH 7.4 aqueous buffer by chromatographic analysis
Type: physicochemical
Conditions: 1-octanol/pH 7.4 aqueous buffer
Enter the number alone.

Specify measured logD for `CCCN(c1cc(N2CCc3cc(S(C)(=O)=O)ccc32)ncn1)C1CCN(C(=O)OC(C)(C)C)CC1` .
4

Specify measured logD for `CC(C)c1noc(N2CCC(N(c3cc(N4CCc5cc(S(C)(=O)=O)ccc54)ncn3)C(F)(F)F)CC2)n1` .
3.79

Specify measured logD for `CC(C)(C)OC(=O)N1CCC(Nc2cc(N3CCc4cc(S(C)(=O)=O)ccc43)ncn2)CC1` .
2.7

Specify measured logD for `CN(c1cc(N2CCc3cc(S(C)(=O)=O)ccc32)ncn1)C1CCN(C(=O)OC(C)(C)C)CC1` .
3.2
